Each entry below lists one item and its recorded IC50 value.
# tested-on: human MetAP2 enzyme (Homo sapiens, UniProt P50579)
# Sequence (P50579 whole entry): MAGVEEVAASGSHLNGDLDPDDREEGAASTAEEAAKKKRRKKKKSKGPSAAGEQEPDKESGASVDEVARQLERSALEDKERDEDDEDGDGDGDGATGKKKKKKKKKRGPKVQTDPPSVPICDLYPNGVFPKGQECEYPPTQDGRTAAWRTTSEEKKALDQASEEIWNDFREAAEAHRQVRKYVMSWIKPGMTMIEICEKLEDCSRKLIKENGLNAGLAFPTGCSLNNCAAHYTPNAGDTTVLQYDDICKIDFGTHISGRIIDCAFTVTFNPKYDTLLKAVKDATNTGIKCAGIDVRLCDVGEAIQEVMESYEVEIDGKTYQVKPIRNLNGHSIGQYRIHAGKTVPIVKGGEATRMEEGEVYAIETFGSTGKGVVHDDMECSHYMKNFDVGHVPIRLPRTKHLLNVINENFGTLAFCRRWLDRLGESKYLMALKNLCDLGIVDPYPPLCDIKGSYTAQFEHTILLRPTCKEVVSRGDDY
# procedure-text: MetAP2 enzyme assay, enzyme complexed with manganese ions
# condition-notes: MetAP2 Mn pIC50, MetAP2 enzyme complexed with manganese ions; Met-AMC substrate at Km
readout-type: IC50 (nM)

1. NS(=O)(=O)c1ccc(-c2cc(C(F)(F)F)cc3[nH]ncc23)cc1: 7.94
2. OCc1ccc(-c2cc(C(F)(F)F)cc3[nH]ncc23)cc1: 3.16
3. Cc1nn(CC(=O)N2CC(O)C2)c(C)c1-c1cc(C(F)(F)F)cc2[nH]ncc12: 15.8
4. Cc1cc(C(=O)N2CC(O)C2)ccc1-c1cc(C(F)(F)F)cc2[nH]ncc12: 10
5. CNC(=O)c1ccc(-c2cc(C(F)(F)F)cc3[nH]ncc23)cc1F: 3.98
6. Cn1cc(-c2cc(C(F)(F)F)cc3[nH]ncc23)c(=O)n(CC(N)=O)c1=O: 12.6
7. CNc1nc(C)c(-c2cc(C(F)(F)F)cc3[nH]ncc23)cc1C(=O)N1CC(O)C1: 3.98

----------
Each entry below lists one item and its recorded pIC50 value.
# tested-on: human MetAP2 enzyme (Homo sapiens, UniProt P50579)
# procedure-text: MetAP2 enzyme assay, enzyme complexed with cobalt ions
# condition-notes: MetAP2 Co pIC50, MetAP2 enzyme complexed with cobalt ions; Met-AMC substrate at Km
pIC50: −log10 of the molar value.
readout-type: pIC50

1. Cn1ncc2cc(-c3cc(C(F)(F)F)cc4[nH]ncc34)ccc21 [Example 36]: 7.60
2. Cc1nn2c(=O)[nH]ncc2c1-c1cc(C(F)(F)F)cc2[nH]ncc12 [Example 222]: 6.60
3. FC(F)(F)c1cc(-c2cccc3[nH]ccc23)c2cn[nH]c2c1 [Example 81]: 7.40
4. OCc1cccc(-c2cc(C(F)(F)F)cc3[nH]ncc23)c1 [Example 8]: 7.40
5. CNC(=O)c1ccc(F)cc1-c1cc(C(F)(F)F)cc2[nH]ncc12 [Example 102]: 6.20
6. Cc1[nH]c(=O)ccc1-c1cc(C(F)(F)F)cc2[nH]ncc12 [Example 389]: 7.30
7. Cc1ncc(-c2cc(C(F)(F)F)cc3[nH]ncc23)c2cc[nH]c12 [Example 292]: 7.40
8. Cc1ccc(C(=O)N2CCC(O)C2)cc1-c1cc(C(F)(F)F)cc2[nH]ncc12 (stereo not shown) [Example 370]: 6.90
9. O=c1[nH]cc(-c2cc(C(F)(F)F)cc3[nH]ncc23)c(=O)[nH]1 [Example 54]: 6.40
10. NC(=O)c1ccc2ncc(-c3cc(C(F)(F)F)cc4[nH]ncc34)n2n1 [Example 276]: 6.40
11. CN1CCOc2cc(-c3cc(C(F)(F)F)cc4[nH]ncc34)cnc21 [Example 122]: 7.40
12. Cc1nc(N2CCN(C)CC2)ccc1-c1cc(C(F)(F)F)cc2[nH]ncc12 [Example 400]: 7.90
13. Cc1nc(NS(=O)(=O)c2cnn(C)c2)ccc1-c1cc(C(F)(F)F)cc2[nH]ncc12 [Example 259]: 7.50
14. Fc1cnc2[nH]ccc2c1-c1cc(C(F)(F)F)cc2[nH]ncc12 [Example 66]: 7.10
15. CN1C(=O)COc2ccc(-c3cc(C(F)(F)F)cc4[nH]ncc34)cc21 [Example 296]: 7.70
16. Cc1c(-c2cc(C(F)(F)F)cc3[nH]ncc23)c(N)nn1C [Example 381]: 7.40
17. CNC(=O)c1ncncc1-c1cc(C(F)(F)F)cc2[nH]ncc12 [Example 254]: 6.10
18. FC(F)(F)COc1ncccc1-c1cc(C(F)(F)F)cc2[nH]ncc12 [Example 100]: 6.70
19. CC(C)(C)C(=O)Nc1ncccc1-c1cc(C(F)(F)F)cc2[nH]ncc12 [Example 73]: 6.70
20. Cc1nc2[nH]cnc2cc1-c1cc(C(F)(F)F)cc2[nH]ncc12 [Example 195]: 7.60
21. FC(F)(F)c1cc(-c2ccc3[nH]ncc3c2)c2cn[nH]c2c1 [Example 236]: 7.20
22. Cn1cc(-c2cc(C(F)(F)F)cc3[nH]ncc23)c(=O)n(CCN2CCOCC2)c1=O [Example 313]: 5.80
23. CNC(=O)c1ccc(F)c(-c2cc(C(F)(F)F)cc3[nH]ncc23)c1 [Example 114]: 7.30
24. Cc1nc2cc(-c3cc(C(F)(F)F)cc4[nH]ncc34)cnc2[nH]1 [Example 341]: 7.80
25. Fc1c[nH]c2ncc(-c3cc(C(F)(F)F)cc4[nH]ncc34)cc12 [Example 339]: 6.90
26. Cc1c(-c2cc(C(F)(F)F)cc3[nH]ncc23)cnn1-c1ccccc1 [Example 71]: 7.00
27. Cn1cc(C(=O)NCC#N)cc(-c2cc(C(F)(F)F)cc3[nH]ncc23)c1=O [Example 354]: 6.50
28. Cc1nc(N2CCOCC2)ccc1-c1cc(C(F)(F)F)cc2[nH]ncc12 [Example 399]: 7.60

----------
# tested-on: human MetAP2 enzyme (Homo sapiens)
# procedure-text: MetAP2 enzyme assay, enzyme complexed with cobalt ions
# condition-notes: MetAP2 Co pIC50, MetAP2 enzyme complexed with cobalt ions; Met-AMC substrate at Km
pIC50: −log10 of the molar value.
readout-type: pIC50

1) Cc1c(-c2cc(C(F)(F)F)cc3[nH]ncc23)ccc(=O)n1CC#N: 7.10
2) CN(C)C(=O)c1ccc(-c2cc(C(F)(F)F)cc3[nH]ncc23)cc1: 7.00
3) NC(=O)c1cc(-c2cc(C(F)(F)F)cc3[nH]ncc23)ccc1Cl: 7.20
4) FC(F)(F)c1cc(-c2cnc3[nH]ccc3c2)c2cn[nH]c2c1: 7.10
5) COc1nccc(C)c1-c1cc(C(F)(F)F)cc2[nH]ncc12: 7.20
6) FC(F)(F)c1cc(-c2cnc(-n3ccnc3)nc2)c2cn[nH]c2c1: 6.80

----------
Each entry below lists one item and its recorded pIC50 value.
# tested-on: human MetAP2 enzyme (Homo sapiens, UniProt P50579)
# procedure-text: MetAP2 enzyme assay, enzyme complexed with manganese ions
# condition-notes: MetAP2 Mn pIC50, MetAP2 enzyme complexed with manganese ions; Met-AMC substrate at Km
pIC50: −log10 of the molar value.
readout-type: pIC50

1. Cc1ncc(-c2cc(C(F)(F)F)cc3[nH]ncc23)c2cc[nH]c12: 8.20
2. CCn1ncc(-c2cc(C(F)(F)F)cc3[nH]ncc23)c1C: 8.00
3. O=C(c1cccc(-c2cc(C(F)(F)F)cc3[nH]ncc23)c1)N1CCCC1: 8.20
4. CCNC(=O)Cn1c(=O)c(-c2cc(C(F)(F)F)cc3[nH]ncc23)cn(C)c1=O: 8.20
5. CN1CCN(C(=O)c2cc(-c3cc(C(F)(F)F)cc4[nH]ncc34)c(=O)n(C)c2)CC1: 8.00
6. Cc1nc(C(N)=O)ccc1-c1cc(C(F)(F)F)cc2[nH]ncc12: 8.20
7. Cc1cc2cncn2cc1-c1cc(C(F)(F)F)cc2[nH]ncc12: 8.10
8. N#CCOc1ccccc1-c1cc(C(F)(F)F)cc2[nH]ncc12: 8.00
9. COc1ccc(-c2cc(C(F)(F)F)cc3[nH]ncc23)c2cccnc12: 8.10
10. NS(=O)(=O)c1ccc(-c2cc(C(F)(F)F)cc3[nH]ncc23)c(F)c1: 8.20
11. NC(=O)c1cc(-c2cc(C(F)(F)F)cc3[nH]ncc23)ccc1Cl: 7.80
12. Cc1c(C(=O)NCCO)cc(-c2cc(C(F)(F)F)cc3[nH]ncc23)c(=O)n1C: 7.90
13. Cn1ncc2cc(-c3cc(C(F)(F)F)cc4[nH]ncc34)ccc21: 8.20
14. C[C@H](O)CNC(=O)c1c[nH]c(=O)c(-c2cc(C(F)(F)F)cc3[nH]ncc23)c1: 7.80
15. CCn1nc(C)c(-c2cc(C(F)(F)F)cc3[nH]ncc23)c1C: 8.20
16. CS(=O)(=O)c1ccc(-c2cc(C(F)(F)F)cc3[nH]ncc23)cc1: 8.20
17. Cc1nn(CCN(C)C)c(C)c1-c1cc(C(F)(F)F)cc2[nH]ncc12: 7.90

Cited source for all entries: patent US9434743B2
